Cited source for all entries: paper PMC6054150

TEST_TARGET: StHK2a (Solanum tuberosum)
MEASUREMENT_PROTOCOL: Plant membrane (tobacco microsome) hormone binding assay with [3H]trans-zeatin, StHK2a
CONDITIONS: competition with labeled trans-zeatin (tZ value from saturation/Scatchard); mean ± SE; read-out: Apparent Kd StHK2a
Method: The transient transformation of tobacco (Nicotiana benthamiana Domin) leaves was accomplished according to [Sparkes et al. (2006)]. […] Ligand binding studies were performed in PBS as described previously ([Romanov et al., 2005]; [Lomin et al., 2015]). […] Kd for [^3H]trans-zeatin (tZ) binding to different receptors was determined in saturation assays followed by data analysis in Scatchard plots. […]
MEASURE_NAME: Kd

{"columns": ["COMPOUND", "TEST_RESULT"],
 "data": [
  ["CC(CO)CCNc1ncnc2nc[nH]c12 (stereo not shown) [Dihydrozeatin]", "169 nM"],
  ["CC(C)=CCNc1ncnc2nc[nH]c12", "2.4 nM"],
  ["C/C(=C\\CNc1ncnc2[nH]cnc12)CO [trans-Zeatin]", "2.6 nM"],
  ["O=C(Nc1ccccc1)Nc1cnns1", "1.4 nM"]
]}

* * *

TEST_TARGET: StHK3aSM (Solanum tuberosum, UniProt A0A2U9K793)
Sequence (A0A2U9K793 entry or part of it): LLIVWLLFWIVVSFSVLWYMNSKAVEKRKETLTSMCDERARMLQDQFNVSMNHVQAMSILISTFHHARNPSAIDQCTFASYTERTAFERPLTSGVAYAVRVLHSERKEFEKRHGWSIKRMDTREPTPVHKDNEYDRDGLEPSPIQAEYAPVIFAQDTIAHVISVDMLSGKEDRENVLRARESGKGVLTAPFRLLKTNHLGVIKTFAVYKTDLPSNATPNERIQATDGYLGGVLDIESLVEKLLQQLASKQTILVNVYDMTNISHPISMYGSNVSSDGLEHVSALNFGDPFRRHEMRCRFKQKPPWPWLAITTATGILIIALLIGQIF
MEASUREMENT_PROTOCOL: Plant membrane (tobacco microsome) hormone binding assay with [3H]trans-zeatin, StHK3a sensory module
CONDITIONS: Apparent Kd StHK3a SM, sensory module; competition with labeled trans-zeatin (tZ value from saturation/Scatchard); mean ± SE
pKd: −log10 of the molar value.
MEASURE_NAME: pKd

{"columns": ["COMPOUND_STRUCTURE_STRING", "TEST_TARGET", "MEASURE_NAME", "TEST_RESULT"],
 "data": [
  ["c1ccc(CNc2ncnc3nc[nH]c23)cc1", "StHK3aSM (Solanum tuberosum, UniProt A0A2U9K793)", "pKd", 7.31]
]}

* * *

TEST_TARGET: StHK4b (Solanum tuberosum, UniProt A0A2U9K786)
Sequence (A0A2U9K786 entry or part of it): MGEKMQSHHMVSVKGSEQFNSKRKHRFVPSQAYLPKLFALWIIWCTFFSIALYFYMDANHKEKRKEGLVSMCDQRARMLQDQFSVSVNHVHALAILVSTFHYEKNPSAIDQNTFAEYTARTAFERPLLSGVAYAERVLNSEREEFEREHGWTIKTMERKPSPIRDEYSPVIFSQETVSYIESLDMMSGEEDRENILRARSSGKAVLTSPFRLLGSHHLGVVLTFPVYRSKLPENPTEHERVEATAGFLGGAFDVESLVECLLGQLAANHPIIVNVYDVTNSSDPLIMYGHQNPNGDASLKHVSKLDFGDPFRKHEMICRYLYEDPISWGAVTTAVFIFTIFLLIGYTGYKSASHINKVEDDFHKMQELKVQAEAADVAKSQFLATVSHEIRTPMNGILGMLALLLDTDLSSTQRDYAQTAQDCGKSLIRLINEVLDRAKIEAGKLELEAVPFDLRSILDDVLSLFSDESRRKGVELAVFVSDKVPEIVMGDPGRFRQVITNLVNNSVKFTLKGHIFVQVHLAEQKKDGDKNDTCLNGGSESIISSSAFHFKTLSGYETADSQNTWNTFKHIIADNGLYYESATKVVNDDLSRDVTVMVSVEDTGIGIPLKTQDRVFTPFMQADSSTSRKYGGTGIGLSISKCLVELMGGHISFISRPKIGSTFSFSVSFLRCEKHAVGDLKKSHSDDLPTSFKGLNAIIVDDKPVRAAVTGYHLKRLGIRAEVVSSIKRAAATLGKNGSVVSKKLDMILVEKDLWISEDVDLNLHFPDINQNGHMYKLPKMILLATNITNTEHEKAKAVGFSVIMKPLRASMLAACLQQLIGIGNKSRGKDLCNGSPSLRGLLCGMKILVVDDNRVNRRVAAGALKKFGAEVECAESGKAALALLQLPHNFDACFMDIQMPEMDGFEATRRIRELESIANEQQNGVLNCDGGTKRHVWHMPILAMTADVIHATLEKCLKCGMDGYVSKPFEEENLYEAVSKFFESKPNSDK
MEASUREMENT_PROTOCOL: Plant membrane (tobacco microsome) hormone binding assay with [3H]trans-zeatin, StHK4b
CONDITIONS: read-out: Apparent Kd StHK4b

{"columns": ["MOLECULE", "TEST_TARGET", "UNIT_OF_MEASUREMENT", "Kd"],
 "data": [
  ["C/C(=C/CNc1ncnc2nc[nH]c12)CO [cis-Zeatin]", "StHK4b (Solanum tuberosum, UniProt A0A2U9K786)", "µM", 0.129]
]}

* * *

TEST_TARGET: StHK4b (Solanum tuberosum)
MEASUREMENT_PROTOCOL: Plant membrane (tobacco microsome) hormone binding assay with [3H]trans-zeatin, StHK4b
CONDITIONS: competition with labeled trans-zeatin (tZ value from saturation/Scatchard); mean ± SE; read-out: Apparent Kd StHK4b
pKd: −log10 of the molar value.

{"columns": ["COMPOUND", "pKd"],
 "data": [
  ["CC(C)=CCNc1ncnc2nc[nH]c12", 8.60],
  ["C/C(=C\\CNc1ncnc2[nH]cnc12)CO [trans-Zeatin]", 8.52],
  ["O=C(Nc1ccccc1)Nc1cnns1", 7.76],
  ["CC(CO)CCNc1ncnc2nc[nH]c12 (stereo not shown) [Dihydrozeatin]", 6.64]
]}

* * *

# pKd per record follows
TEST_TARGET: StHK4a (Solanum tuberosum)
Sequence (A0A2U9K790 entry or part of it): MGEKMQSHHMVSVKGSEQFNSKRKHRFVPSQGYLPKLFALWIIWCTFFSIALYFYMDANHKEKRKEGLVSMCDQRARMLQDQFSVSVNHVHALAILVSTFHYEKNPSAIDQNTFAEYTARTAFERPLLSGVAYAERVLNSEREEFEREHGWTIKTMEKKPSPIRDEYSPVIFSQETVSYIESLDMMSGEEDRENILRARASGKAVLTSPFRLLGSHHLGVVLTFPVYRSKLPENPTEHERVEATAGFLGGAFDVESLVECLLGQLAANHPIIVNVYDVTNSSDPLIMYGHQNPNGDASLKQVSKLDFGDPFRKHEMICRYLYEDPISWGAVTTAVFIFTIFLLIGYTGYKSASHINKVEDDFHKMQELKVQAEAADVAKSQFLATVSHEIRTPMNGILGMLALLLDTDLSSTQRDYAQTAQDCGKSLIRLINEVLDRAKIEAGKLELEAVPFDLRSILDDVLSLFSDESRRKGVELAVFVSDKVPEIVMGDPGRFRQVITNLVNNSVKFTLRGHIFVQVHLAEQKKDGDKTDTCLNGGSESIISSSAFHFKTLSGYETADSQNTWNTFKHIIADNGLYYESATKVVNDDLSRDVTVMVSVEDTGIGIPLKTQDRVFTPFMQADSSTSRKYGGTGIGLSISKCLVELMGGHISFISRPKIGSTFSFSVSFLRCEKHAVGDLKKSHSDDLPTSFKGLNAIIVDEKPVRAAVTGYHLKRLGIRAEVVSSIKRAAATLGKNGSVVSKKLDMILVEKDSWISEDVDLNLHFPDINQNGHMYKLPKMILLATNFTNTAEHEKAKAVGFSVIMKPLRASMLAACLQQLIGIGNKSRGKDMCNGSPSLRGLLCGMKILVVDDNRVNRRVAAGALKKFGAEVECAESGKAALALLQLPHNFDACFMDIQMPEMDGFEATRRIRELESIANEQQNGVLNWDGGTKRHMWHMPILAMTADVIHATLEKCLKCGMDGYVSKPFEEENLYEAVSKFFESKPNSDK
MEASUREMENT_PROTOCOL: Plant membrane (tobacco microsome) hormone binding assay with [3H]trans-zeatin, StHK4a
CONDITIONS: competition with labeled trans-zeatin (tZ value from saturation/Scatchard); mean ± SE; read-out: Apparent Kd StHK4a
pKd: −log10 of the molar value.
MEASURE_NAME: pKd

{"columns": ["MOLECULE", "MEASURE_NAME", "TEST_RESULT"],
 "data": [
  ["O=C(Nc1ccccc1)Nc1cnns1", "pKd", 7.90],
  ["C/C(=C\\CNc1ncnc2[nH]cnc12)CO [trans-Zeatin]", "pKd", 8.60],
  ["CC(C)=CCNc1ncnc2nc[nH]c12", "pKd", 8.68],
  ["CC(CO)CCNc1ncnc2nc[nH]c12 (stereo not shown) [Dihydrozeatin]", "pKd", 6.75]
]}

* * *

TEST_TARGET: StHK4a (Solanum tuberosum)
MEASUREMENT_PROTOCOL: Plant membrane (tobacco microsome) hormone binding assay with [3H]trans-zeatin, StHK4a
Description: The transient transformation of tobacco (Nicotiana benthamiana Domin) leaves was accomplished according to [Sparkes et al. (2006)]. […] Ligand binding studies were performed in PBS as described previously ([Romanov et al., 2005]; [Lomin et al., 2015]). […] Kd for [^3H]trans-zeatin (tZ) binding to different receptors was determined in saturation assays followed by data analysis in Scatchard plots. […]
MEASURE_NAME: Kd (nM)

{"columns": ["COMPOUND_STRUCTURE_STRING", "TEST_TARGET", "TEST_RESULT"],
 "data": [
  ["c1ccc(CNc2ncnc3nc[nH]c23)cc1", "StHK4a (Solanum tuberosum)", 55]
]}

* * *

TEST_TARGET: StHK4b (Solanum tuberosum)
MEASUREMENT_PROTOCOL: Plant membrane (tobacco microsome) hormone binding assay with [3H]trans-zeatin, StHK4b

{"columns": ["COMPOUND_STRUCTURE_STRING", "Kd [nM]"],
 "data": [
  ["c1ccc(CNc2ncnc3nc[nH]c23)cc1", 63]
]}

* * *

TEST_TARGET: StHKs (StHK2a, StHK3aSM, StHK4a, StHK4b)
MEASUREMENT_PROTOCOL: Competitive binding, summary over the analysed StHKs
CONDITIONS: span over StHK2a, read-out: apparent Kd, all analysed StHKs
MEASURE_NAME: Kd

{"columns": ["COMPOUND", "TEST_RESULT"],
 "data": [
  ["C/C(=C/CNc1ncnc2nc[nH]c12)CO [cis-Zeatin]", "> 100 nM"]
]}

* * *

TEST_TARGET: StHK2a (Solanum tuberosum, UniProt A0A2P1D005)
Sequence (A0A2P1D005 entry or part of it): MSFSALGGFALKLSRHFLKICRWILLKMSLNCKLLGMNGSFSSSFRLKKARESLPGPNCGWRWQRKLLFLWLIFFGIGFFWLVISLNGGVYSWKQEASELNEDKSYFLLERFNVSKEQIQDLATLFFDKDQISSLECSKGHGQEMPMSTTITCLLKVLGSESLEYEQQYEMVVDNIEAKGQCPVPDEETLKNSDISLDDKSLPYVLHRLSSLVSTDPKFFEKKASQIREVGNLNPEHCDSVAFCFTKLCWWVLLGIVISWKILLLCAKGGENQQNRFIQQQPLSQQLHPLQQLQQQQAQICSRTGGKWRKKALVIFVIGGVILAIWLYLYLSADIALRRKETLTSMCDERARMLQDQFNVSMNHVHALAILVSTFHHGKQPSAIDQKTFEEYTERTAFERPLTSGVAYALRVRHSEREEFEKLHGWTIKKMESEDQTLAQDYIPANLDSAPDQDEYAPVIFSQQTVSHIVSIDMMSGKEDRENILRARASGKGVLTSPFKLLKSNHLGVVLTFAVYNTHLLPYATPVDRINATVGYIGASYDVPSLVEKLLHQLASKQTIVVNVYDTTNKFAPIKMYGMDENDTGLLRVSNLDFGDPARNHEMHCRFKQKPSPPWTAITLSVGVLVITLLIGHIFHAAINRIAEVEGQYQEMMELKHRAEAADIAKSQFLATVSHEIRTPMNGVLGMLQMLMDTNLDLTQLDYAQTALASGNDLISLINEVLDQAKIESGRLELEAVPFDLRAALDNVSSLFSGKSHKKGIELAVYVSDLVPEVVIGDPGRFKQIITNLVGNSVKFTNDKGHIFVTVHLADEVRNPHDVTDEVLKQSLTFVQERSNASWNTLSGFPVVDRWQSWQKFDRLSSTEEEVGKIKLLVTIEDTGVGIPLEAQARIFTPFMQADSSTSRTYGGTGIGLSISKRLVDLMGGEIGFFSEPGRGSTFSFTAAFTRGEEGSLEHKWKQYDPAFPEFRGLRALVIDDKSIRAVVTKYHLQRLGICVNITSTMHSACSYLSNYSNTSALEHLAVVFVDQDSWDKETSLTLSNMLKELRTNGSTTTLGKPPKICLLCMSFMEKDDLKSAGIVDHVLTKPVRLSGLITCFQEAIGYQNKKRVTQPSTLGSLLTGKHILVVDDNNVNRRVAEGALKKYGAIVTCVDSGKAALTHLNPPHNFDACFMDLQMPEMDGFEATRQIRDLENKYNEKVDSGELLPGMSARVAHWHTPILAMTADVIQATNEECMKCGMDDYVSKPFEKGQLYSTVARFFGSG
MEASUREMENT_PROTOCOL: Plant membrane (tobacco microsome) hormone binding assay with [3H]trans-zeatin, StHK2a
CONDITIONS: read-out: Apparent Kd StHK2a
MEASURE_NAME: Kd

{"columns": ["COMPOUND", "TEST_RESULT"],
 "data": [
  ["C/C(=C/CNc1ncnc2nc[nH]c12)CO [cis-Zeatin]", "0.102 µM"]
]}
